target of assay: PE-labeled human PD-L1-Ig binding to Jurkat cell line over-expressing human PD-1 (Jurkat-PD-1) (Homo sapiens, UniProt Q15116)
Construct: expressed in transfected cells; host or cells: Jurkat
Sequence (Q15116 25-288): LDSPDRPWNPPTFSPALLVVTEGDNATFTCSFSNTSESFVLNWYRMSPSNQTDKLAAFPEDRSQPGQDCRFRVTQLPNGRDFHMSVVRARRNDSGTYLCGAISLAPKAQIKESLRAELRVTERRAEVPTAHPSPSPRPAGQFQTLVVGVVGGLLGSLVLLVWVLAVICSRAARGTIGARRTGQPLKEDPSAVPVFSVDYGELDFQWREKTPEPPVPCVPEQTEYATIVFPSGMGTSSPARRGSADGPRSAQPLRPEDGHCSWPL
protocol details: Jurkat-PD-1 Cell Binding High-Content Screening Assay (CBA): Method 1
condition notes: Jurkat-hPD-1 cells, PE-labeled PD-L1-Ig 20 nM final; read-out: Jurkat HPDL1 PD1 IC50 (uM) (Method 1)
Bridge positions count the residues as written; N and C are the ends. Square brackets hold non-standard residues; d marks the D form. Peptide text beside a SMILES is read from it. ξ: configuration not given here. Phe(4-COOH) = N[C@@H](Cc1ccc(C(=O)O)cc1)C(=O)O; Bip = N[C@@H](Cc1ccc(-c2ccccc2)cc1)C(=O)O; ξW = NC(Cc1c[nH]c2ccccc12)C(=O)O; NMeA = CN[C@@H](C)C(=O)O; Orn = NCCC[C@H](N)C(=O)O; Dab = NCC[C@H](N)C(=O)O
measurement kind: IC50 (µM)
Expressed in µM, but write only the number.

Some compounds with recorded IC50:
• CC(C)C[C@@H]1NC(=O)[C@H](CCN)NC(=O)[C@@H](CC(C)C)NC(=O)[C@H](C)N(C)C(=O)[C@H](C(C)C)NC(=O)[C@H](Cc2ccc(-c3ccccc3)cc2)NC(=O)[C@H](C(C)C)NC(=O)[C@H](Cc2c[nH]c3ccccc23)NC(=O)[C@H](CC(=O)O)NC(=O)[C@H](Cc2ccc(O)cc2)NC(=O)[C@H](CCCNC(=N)N)NC(=O)CSC[C@@H](C(=O)N[C@@H](C)C(N)=O)NC(=O)[C@H]([C@@H](C)O)NC(=O)[C@H](C(C)C)NC1=O [Compound 1394] ({CH2CO}-RYDWV[Bip]V[NMeA][dL][Dab]LVTCA-NH2; thioether N-14) = 0.01
• CC(C)C[C@@H]1NC(=O)[C@H](CCCNC(=N)N)NC(=O)C(Cc2c[nH]c3ccccc23)NC(=O)[C@H](C)N(C)C(=O)[C@H](CCCNC(=N)N)NC(=O)[C@H](Cc2ccc(-c3ccccc3)cc2)NC(=O)[C@H](C(C)C)NC(=O)[C@H](Cc2c[nH]c3ccccc23)NC(=O)[C@H](CC(=O)O)NC(=O)[C@H](Cc2ccc(O)cc2)NC(=O)[C@H](Cc2ccccc2)NC(=O)CSC[C@@H](C(=O)NCC(N)=O)NC(=O)[C@H](CO)NC(=O)[C@H](C(C)C)NC1=O (stereo partly shown) [Compound 1021] ({CH2CO}-FYDWV[Bip]R[NMeA][ξW]RLVSCG-NH2; thioether N-14) = 0.14
• CC(C)C[C@@H]1NC(=O)[C@H](Cc2c[nH]c3ccccc23)NC(=O)[C@H](CC(=O)O)NC(=O)[C@H](Cc2ccc(C(=O)O)cc2)NC(=O)[C@H](Cc2ccccc2)NC(=O)CSC[C@@H](C(=O)N[C@@H](C)C(N)=O)NC(=O)[C@H](CO)NC(=O)[C@H](C(C)C)NC(=O)[C@H](CC(C)C)NC(=O)[C@H](CC(N)=O)NC(=O)[C@@H](C)NC(=O)[C@H](C)N(C)C(=O)[C@H](C(C)C)NC(=O)[C@H](Cc2ccc(-c3ccccc3)cc2)NC1=O [Compound 1731] ({CH2CO}-F[Phe(4-COOH)]DWL[Bip]V[NMeA][dA]NLVSCA-NH2; thioether N-14) = 0.01

Exercise: Value lookup for IC50; key = CC(C)C[C@@H]1NC(=O)[C@H](CCCNC(=N)N)NC(=O)[C@@H](CC(C)C)NC(=O)[C@H](C)N(C)C(=O)[C@H](CCCN)NC(=O)[C@H](Cc2ccc(-c3ccccc3)cc2)NC(=O)[C@H](C(C)C)NC(=O)[C@H](Cc2c[nH]c3ccccc23)NC(=O)[C@H](CC(=O)O)NC(=O)[C@H](Cc2ccc(O)cc2)NC(=O)[C@H](Cc2ccccc2)NC(=O)CSC[C@@H](C(=O)N[C@@H](C)C(N)=O)NC(=O)[C@H]([C@@H](C)O)NC(=O)[C@H](C(C)C)NC1=O [Compound 1123] ({CH2CO}-FYDWV[Bip][Orn][NMeA][dL]RLVTCA-NH2; thioether N-14)
Solution: 0.06
